- Target Of Assay: CB2 receptor (Homo sapiens, UniProt P34972)
- Sequence (P34972 whole entry): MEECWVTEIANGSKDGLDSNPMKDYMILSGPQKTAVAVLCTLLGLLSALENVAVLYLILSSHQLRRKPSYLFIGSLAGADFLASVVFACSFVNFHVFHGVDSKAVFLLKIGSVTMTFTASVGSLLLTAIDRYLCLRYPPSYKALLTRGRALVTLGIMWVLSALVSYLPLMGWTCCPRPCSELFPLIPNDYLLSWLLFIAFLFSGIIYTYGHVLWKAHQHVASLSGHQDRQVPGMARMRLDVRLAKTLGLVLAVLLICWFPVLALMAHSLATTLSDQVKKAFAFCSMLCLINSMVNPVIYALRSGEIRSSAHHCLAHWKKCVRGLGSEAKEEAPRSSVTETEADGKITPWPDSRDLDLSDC
- Procedure Details: CB2 competitive radioligand binding assay ([3H] WIN-55,212-2)
- Design: expressed in transfected cells; host or cells: CHO-K1 cells
- Details: Table 2, ratio of Ki CB1/CB2
Rule: Fold Selectivity (CB1/CB2) under 20 gives 0, otherwise 1.

- Compound: "CCCCCCC(C)(C)c1cc(O)c2c(c1)OC(C)(C)[C@@H]1CC=C(C(=O)NC[C@H](O)CO)C[C@@H]21"
  Group: 0
- Compound: "CCCCCCC(C)(C)c1cc(O)c2c(c1)OC(C)(C)[C@@H]1CC=C(C(=O)NCCCO)C[C@@H]21"
  Group: 1
- Compound: "CCCCCCC(C)(C)c1cc(O)c2c(c1)OC(C)(C)[C@@H]1CC=C(C(=O)NC3CC3)C[C@@H]21"
  Group: 0
- Compound: "CCCCCCC(C)(C)c1cc(O)c2c(c1)OC(C)(C)[C@@H]1CC=C(C(=O)NC(C)(C)CCO)C[C@@H]21"
  Group: 0
- Compound: "CCCCCCC(C)(C)c1cc(O)c2c(c1)OC(C)(C)[C@@H]1CC=C(C(=O)NCCO)C[C@@H]21"
  Group: 0
- Compound: "CCCCCCC(C)(C)c1cc(O)c2c(c1)OC(C)(C)[C@@H]1CC=C(C(=O)OC)C[C@@H]21"
  Group: 1
- Compound: "CCCCCCC(C)(C)c1cc(O)c2c(c1)OC(C)(C)[C@@H]1CC=C(C(=O)NC(CO)CO)C[C@@H]21"
  Group: 0

* * *

Measured Vd, listed per entry.
- Procedure Details: Pharmacokinetics after IV dose in mice
- Details: mouse, in vivo; 1 mg/kg IV, male C57BL/6 mice; read-out: Vss

- Compound: "CCCCCCC(C)(C)c1cc(O)c2c(c1)OC(C)(C)[C@@H]1CC=C(C(=O)NC(C)(C)CCO)C[C@@H]21"
  Vd, L/kg: 1.37
- Compound: "CCCCCCC(C)(C)c1cc(O)c2c(c1)OC(C)(C)[C@@H]1CC=C(C(=O)O)C[C@@H]21 [AJA, reference compound]"
  Vd, L/kg: 0.75
- Compound: "CCCCCCC(C)(C)c1cc(O)c2c(c1)OC(C)(C)[C@@H]1CC=C(C(=O)OC(C)C)C[C@@H]21"
  Vd, L/kg: 0.43
- Compound: "CCCCCCC(C)(C)c1cc(O)c2c(c1)OC(C)(C)[C@@H]1CC=C(C(=O)NC[C@H](O)CO)C[C@@H]21"
  Vd, L/kg: 1.2
- Compound: "CCCCCCC(C)(C)c1cc(O)c2c(c1)OC(C)(C)[C@@H]1CC=C(C(=O)NC[C@@H](O)CO)C[C@@H]21"
  Vd, L/kg: 1.42

* * *

- Procedure Details: Pharmacokinetics after IV dose in mice
- Details: male, C57BL/6, mouse, in vivo, iv, 1 mg/kg, 1 mg/kg IV, male C57BL/6 mice; read-out: AUClast
- Protocol: Male C57BL/6 mice were administered an intravenous (IV) dose of 1 mg/kg of the indicated compound.
Lab note: compare AUC(0-t) against 2000 ng·h/mL. Equal or greater, write criterion met. Smaller, write criterion not met.

- Molecule: "CCCCCCC(C)(C)c1cc(O)c2c(c1)OC(C)(C)[C@@H]1CC=C(C(=O)OC(C)C)C[C@@H]21"
  Group: "criterion met"
- Molecule: "CCCCCCC(C)(C)c1cc(O)c2c(c1)OC(C)(C)[C@@H]1CC=C(C(=O)NC[C@@H](O)CO)C[C@@H]21"
  Group: "criterion met"
- Molecule: "CCCCCCC(C)(C)c1cc(O)c2c(c1)OC(C)(C)[C@@H]1CC=C(C(=O)O)C[C@@H]21 [AJA, reference compound]"
  Group: "criterion met"
- Molecule: "CCCCCCC(C)(C)c1cc(O)c2c(c1)OC(C)(C)[C@@H]1CC=C(C(=O)NC(C)(C)CCO)C[C@@H]21"
  Group: "criterion not met"
- Molecule: "CCCCCCC(C)(C)c1cc(O)c2c(c1)OC(C)(C)[C@@H]1CC=C(C(=O)NC[C@H](O)CO)C[C@@H]21"
  Group: "criterion not met"

* * *

- Target Of Assay: CB2 receptor (Homo sapiens, UniProt P34972)
- Procedure Details: cell-based
- Design: host or cells: cAMP Hunter cell lines
- Details: PathHunter agonist mode; read-out: CB2 Activity (β-Arrestin)
Could you mark each record Condition met if its EC50 falls strictly under 10 nM, and Condition not met if it equals or exceeds it?

- Molecule: "CC(C)(CCCCCCO)c1cc(O)c2c(c1)OC(C)(C)[C@@H]1CC=C(C(=O)O)C[C@@H]21 [Compound 57]"
  Group: "Condition not met"
- Molecule: "CCCCCCC(C)(C)c1cc(O)c2c(c1)OC(C)(C)[C@@H]1CC=C(C(=O)OCC(O)CO)C[C@@H]21 (some centres unmarked) [Compound 22]"
  Group: "Condition met"
- Molecule: "CCCCCCC(C)(C)c1cc(O)c2c(c1)OC(C)(C)[C@@H]1CC=C(C(=O)OC(C)C)C[C@@H]21 [Compound 29]"
  Group: "Condition met"
- Molecule: "CCCCCCC(C)(C)c1cc(O)c2c(c1)OC(C)(C)[C@@H]1CC=C(C(=O)NOCCO)C[C@@H]21 [Compound 41]"
  Group: "Condition met"
- Molecule: "CCCCCCC(C)(C)c1cc(O)c2c(c1)OC(C)(C)[C@@H]1CC=C(C(=O)NOC(C)(C)C)C[C@@H]21 [Compound 88]"
  Group: "Condition met"
- Molecule: "CCCCCCC(C)(C)c1cc(O)c2c(c1)OC(C)(C)[C@@H]1CC=C(C(=O)NCCC(=O)O)C[C@@H]21 [Compound 26]"
  Group: "Condition not met"
- Molecule: "CCCCCCC(C)(C)c1cc(O)c2c(c1)OC(C)(C)[C@@H]1CC=C(C(=O)NC3CC3)C[C@@H]21 [Compound 6]"
  Group: "Condition not met"
- Molecule: "CCCC(C)(C)c1cc(O)c2c(c1)OC(C)(C)[C@@H]1CC=C(C(=O)NC3(C(F)(F)F)CC3)C[C@@H]21 [Compound 102]"
  Group: "Condition not met"
- Molecule: "CCCCCCC(C)(C)c1cc(O)c2c(c1)OC(C)(C)[C@@H]1CC=C(C(=O)NCC(=O)O)C[C@@H]21 [Compound 1]"
  Group: "Condition not met"
- Molecule: "CCCCCCC(C)(C)c1cc(O)c2c(c1)OC(C)(C)[C@@H]1CC=C(C(=O)NC3CNC3)C[C@@H]21 [Compound 103]"
  Group: "Condition met"
- Molecule: "CCCCCCC(C)(C)c1cc(O)c2c(c1)OC(C)(C)[C@@H]1CC=C(C(=O)NC(C)(C)CCO)C[C@@H]21 [Compound 15]"
  Group: "Condition not met"
- Molecule: "CCCCCCC(C)(C)c1cc(O)c2c(c1)OC(C)(C)[C@@H]1CC=C(C(=O)NCCO)C[C@@H]21 [Compound 5]"
  Group: "Condition not met"
- Molecule: "CCCCCCC(C)(C)c1cc(O)c2c(c1)OC(C)(C)[C@@H]1CC=C(C(=O)N[C@H]3C[C@@H](O)C3)C[C@@H]21 [Compound 46]"
  Group: "Condition met"

* * *

- Target Of Assay: UniProt:P21554
- Sequence (P21554 whole entry): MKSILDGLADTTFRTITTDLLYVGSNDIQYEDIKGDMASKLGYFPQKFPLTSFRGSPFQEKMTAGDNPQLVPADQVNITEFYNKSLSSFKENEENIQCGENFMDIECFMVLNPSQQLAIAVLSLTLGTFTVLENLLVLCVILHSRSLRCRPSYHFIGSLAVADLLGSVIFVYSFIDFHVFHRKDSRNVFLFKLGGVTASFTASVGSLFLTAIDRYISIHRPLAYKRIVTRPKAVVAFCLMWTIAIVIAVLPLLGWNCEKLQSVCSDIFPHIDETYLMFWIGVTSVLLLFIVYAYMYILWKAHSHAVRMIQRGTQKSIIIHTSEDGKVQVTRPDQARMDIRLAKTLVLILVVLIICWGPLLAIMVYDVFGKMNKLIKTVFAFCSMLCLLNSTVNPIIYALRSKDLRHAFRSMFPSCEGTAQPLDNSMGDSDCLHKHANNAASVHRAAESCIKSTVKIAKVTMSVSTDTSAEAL
- Procedure Details: cell-based
- Parameters: host or cells: PathHunter cell lines
pEC50: −log10 of the molar value.
Listing of recorded pEC50 by entry.

- Molecule: "CCCCCCC(C)(C)c1cc(O)c2c(c1)OC(C)(C)[C@@H]1CC=C(C(=O)OCC(O)CO)C[C@@H]21 (stereo partly shown)"
  Result Qualifier: "="
  pEC50: 7.38
- Molecule: "CCCC(C)(C)c1cc(O)c2c(c1)OC(C)(C)[C@@H]1CC=C(C(=O)NC3CCCC3)C[C@@H]21"
  Result Qualifier: "<"
  pEC50: 5.52
- Molecule: "CCCCCCC(C)(C)c1cc(O)c2c(c1)OC(C)(C)[C@@H]1CC=C(C(=O)NS(C)(=O)=O)C[C@@H]21"
  Result Qualifier: "="
  pEC50: 5.84
- Molecule: "CCCCCCC(C)(C)c1cc(O)c2c(c1)OC(C)(C)[C@@H]1CC=C(C(=O)NC3(C(F)(F)F)CCC3)C[C@@H]21"
  Result Qualifier: "="
  pEC50: 7.89
- Molecule: "CCCCCCC(C)(C)c1cc(O)c2c(c1)OC(C)(C)[C@@H]1CC=C(C(=O)NO)C[C@@H]21"
  Result Qualifier: "="
  pEC50: 7.12
- Molecule: "CCCCCCC(C)(C)c1cc(O)c2c(c1)OC(C)(C)[C@@H]1CC=C(C(=O)NC(C)(C)C(F)(F)F)C[C@@H]21"
  Result Qualifier: "="
  pEC50: 6.59
- Molecule: "CCCCCCC(C)(C)c1cc(O)c2c(c1)OC(C)(C)[C@@H]1CC=C(C(=O)NC3COC3)C[C@@H]21"
  Result Qualifier: "="
  pEC50: 6.89
- Molecule: "CCCCCCC(C)(C)c1cc(O)c2c(c1)OC(C)(C)[C@@H]1CC=C(C(=O)NC3CC(F)(F)C3)C[C@@H]21"
  Result Qualifier: "="
  pEC50: 7.48
- Molecule: "CCCCCCC(C)(C)c1cc(OC)c2c(c1)OC(C)(C)[C@@H]1CC=C(C(=O)O)C[C@@H]21"
  Result Qualifier: "<"
  pEC50: 5.52
- Molecule: "CCCCCCC(C)(C)c1cc(O)c2c(c1)OC(C)(C)[C@@H]1CC=C(C(=O)NC3CCCC3)C[C@@H]21"
  Result Qualifier: "="
  pEC50: 7.76
- Molecule: "CCCCCCC(C)(C)c1cc(O)c2c(c1)OC(C)(C)[C@@H]1CC=C(C(=O)N[C@H]3C[C@@H](O)C3)C[C@@H]21"
  Result Qualifier: "="
  pEC50: 5.22
- Molecule: "CCCCCCC(C)(C)c1cc(O)c2c(c1)OC(C)(C)[C@H]1CC=C(C(=O)O)C[C@H]21"
  Result Qualifier: "<"
  pEC50: 5.52
- Molecule: "CCCCCCC(C)(C)c1cc(O)c2c(c1)OC(C)(C)[C@@H]1CC=C(C(=O)N3CCNCC3)C[C@@H]21"
  Result Qualifier: "="
  pEC50: 5.35
